Test system: L1210 leukemia ip in BDF1 mice, survival T/C
assay_info: NCI In Vivo Anticancer Drug Screen. Data for tumor model L1210 Leukemia (intraperitoneal) in B6D2F1 (BDF1) mice
experimental_conditions: endpoint: mean survival time; dose: 200.0 mg/kg/injection; schedule: Q04DX003 (ip); vehicle: other; higher = longer survival
Description: The antitumor activity of compounds was measured in mice bearing transplantable tumors. Survival or tumor size were measured and the results are expressed as the measurement made in the treated group (T) divided by the measurement made in the vehicle treated control group (C). The tumor model used in this assay is L1210 Leukemia (intraperitoneal) in B6D2F1 (BDF1) mice
Inconclusive results and toxic doses are left out. Peptide text beside a SMILES is read from it. * marks the point of attachment. ONp = O=[N+]([O-])c1ccc(O*)cc1; Tos = Cc1ccc(S(=O)(=O)*)cc1
endpoint_name: T/C

Request: Tell me the measured T/C of Cc1cc2c(c(=O)n1C)COC2=O , please.
Response: 100 % of control

Request: CCOP(=S)(NCCCOC)OCC
Response: 92 % of control

Request: Cc1ccc(S(=O)(=O)NCC(=O)NCC(=O)Oc2ccc([N+](=O)[O-])cc2)cc1 (Tos-Gly-Gly-ONp)
Response: 102 % of control

Request: COC(=O)C1CCCC(=O)C1C(=O)OC (stereo unspecified)
Response: 97 % of control

Request: O=C1CCSc2ccccc21
Response: 96 % of control

Request: O=C(O)C(CSSCC(NS(=O)(=O)Cc1ccccc1)C(=O)O)NS(=O)(=O)Cc1ccccc1 (stereo unspecified)
Response: 92 % of control
